Form: system (Cytochrome P450 2D6 (Homo sapiens, UniProt P10635)), quantity (log10 IC50), values below.
measurementType: log10 IC50 (log10 of the value in nM)

compound: CCc1ccc2c(c1)C(C1CCCCC1)N(C(=O)CNC[C@@H](C)O)CC2 (stereo partly drawn)
measuredValue: 3.11

compound: C[C@@H](O)CNCC(=O)N1CCc2ccccc2[C@@H]1C1CCCCC1
measuredValue: 3.15

compound: C[C@@H](O)CNCC(=O)N1CCc2cccc(F)c2C1c1ccccc1 (stereo partly drawn)
measuredValue: 3.11

compound: COc1cccc2c1C(C1CCCCC1)N(C(=O)CNC[C@@H](C)O)CC2 (stereo partly drawn)
measuredValue: 4.48

compound: COc1ccc2c(c1)C(C1CCCCC1)N(C(=O)CNC[C@@H](C)O)CC2 (stereo partly drawn)
measuredValue: 3.57

compound: C[C@@H](O)CNCC(=O)N1CCc2ccccc2[C@@H]1c1ccccc1
measuredValue: 3.34

compound: C[C@@H](O)CNCC(=O)N1CCc2ccccc2C1C1CCCCC1 (stereo partly drawn)
measuredValue: 3.04

----------
Target: CYP3A4 (Homo sapiens)
Sequence (P08684 whole entry): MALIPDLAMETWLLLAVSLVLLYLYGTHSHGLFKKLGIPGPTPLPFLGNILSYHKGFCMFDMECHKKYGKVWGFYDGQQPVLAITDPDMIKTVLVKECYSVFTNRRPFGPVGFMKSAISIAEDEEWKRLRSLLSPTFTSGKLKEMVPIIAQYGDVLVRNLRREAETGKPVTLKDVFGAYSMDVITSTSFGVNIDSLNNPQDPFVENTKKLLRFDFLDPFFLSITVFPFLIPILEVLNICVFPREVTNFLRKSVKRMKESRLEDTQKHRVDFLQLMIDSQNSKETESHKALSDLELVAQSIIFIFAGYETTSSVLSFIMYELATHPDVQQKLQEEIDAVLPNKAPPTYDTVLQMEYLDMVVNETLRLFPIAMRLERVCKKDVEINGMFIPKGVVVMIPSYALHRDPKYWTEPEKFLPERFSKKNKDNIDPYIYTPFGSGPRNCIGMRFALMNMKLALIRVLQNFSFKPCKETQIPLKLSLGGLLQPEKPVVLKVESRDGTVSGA
Test: Reversible inhibition of CYP3A4 in human liver microsomes assessed as residual enzyme activity using midazolam as substrate by fluorescence-based assay
Settings: probe midazolam

molecule: C[C@@H](O)CNCC(=O)N1CCc2cccc(F)c2C1c1ccccc1 (stereo partly specified)
testedTarget: CYP3A4 (Homo sapiens)
activity [%]: 103

molecule: COc1ccc2c(c1)CCN(C(=O)CNC[C@@H](C)O)C2C1CCCCC1 (stereo partly specified)
testedTarget: CYP3A4 (Homo sapiens)
activity [%]: 93

molecule: CCc1ccc2c(c1)C(C1CCCCC1)N(C(=O)CNC[C@@H](C)O)CC2 (stereo partly specified)
testedTarget: CYP3A4 (Homo sapiens)
activity [%]: 85

molecule: Cc1cccc2c1C(c1ccccc1)N(C(=O)CNC[C@@H](C)O)CC2 (stereo partly specified)
testedTarget: CYP3A4 (Homo sapiens)
activity [%]: 100

molecule: CC[C@@H](O)CNCC(=O)N1CCc2ccccc2C1C1CCCCC1 (stereo partly specified)
testedTarget: CYP3A4 (Homo sapiens)
activity [%]: 87

molecule: COc1cccc2c1[C@@H](c1ccccc1)N(C(=O)CNC[C@@H](C)O)CC2
testedTarget: CYP3A4 (Homo sapiens)
activity [%]: 110

----------
Target: CYP3A4 (Homo sapiens)
Assay: Reversible inhibition of CYP3A4 in human liver microsomes assessed as residual enzyme activity using midazolam as substrate by fluorescence-based assay
Conditions: probe midazolam
Consider the cut-off 90%. If the recorded activity is strictly smaller, the label is MET; if not, the label is NOT MET.

compound: COc1cccc2c1CCN(C(=O)CNC[C@@H](C)O)C2C1CCCCC1 (stereo not given in full)
testedTarget: CYP3A4 (Homo sapiens)
assignedCategory: NOT MET

compound: COc1cccc2c1[C@H](c1ccccc1)N(C(=O)CNC[C@@H](C)O)CC2
testedTarget: CYP3A4 (Homo sapiens)
assignedCategory: NOT MET

compound: CC[C@H](O)CNCC(=O)N1CCc2ccccc2C1C1CCCCC1 (stereo not given in full)
testedTarget: CYP3A4 (Homo sapiens)
assignedCategory: MET

compound: C[C@@H](O)CNCC(=O)N1CCc2ccccc2[C@@H]1C1CCCCC1
testedTarget: CYP3A4 (Homo sapiens)
assignedCategory: NOT MET

compound: C[C@@H](O)CNCC(=O)N1CCc2ccc(F)cc2C1C1CCCCC1 (stereo not given in full)
testedTarget: CYP3A4 (Homo sapiens)
assignedCategory: NOT MET

compound: COc1cccc2c1C(C1CCCCC1)N(C(=O)CNC[C@@H](C)O)CC2 (stereo not given in full)
testedTarget: CYP3A4 (Homo sapiens)
assignedCategory: MET

compound: C[C@H](O)CNCC(=O)N1CCc2ccccc2C1C1CCCCC1 (stereo not given in full)
testedTarget: CYP3A4 (Homo sapiens)
assignedCategory: NOT MET

compound: CC(C)(C)[C@@H](CO)NCC(=O)N1CCc2ccccc2C1C1CCCCC1 (stereo not given in full)
testedTarget: CYP3A4 (Homo sapiens)
assignedCategory: MET

compound: C[C@@H](O)CNCC(=O)N1CCc2ccccc2[C@@H]1c1ccccc1
testedTarget: CYP3A4 (Homo sapiens)
assignedCategory: NOT MET

compound: C[C@@H](O)CNCC(=O)N1CCc2c(F)cccc2C1C1CCCCC1 (stereo not given in full)
testedTarget: CYP3A4 (Homo sapiens)
assignedCategory: NOT MET

compound: CC(C)C[C@@H](CO)NCC(=O)N1CCc2ccccc2C1C1CCCCC1 (stereo not given in full)
testedTarget: CYP3A4 (Homo sapiens)
assignedCategory: MET

compound: COc1ccc2c(c1)C(C1CCCCC1)N(C(=O)CNC[C@@H](C)O)CC2 (stereo not given in full)
testedTarget: CYP3A4 (Homo sapiens)
assignedCategory: NOT MET
